# Tested on: T1, human CD8 alpha (CD8A) on primary human CD8+ T cells (human, UniProt P01732 22-235)
# T1 construct: whole, on cells; also called hCD8A
# T1 sequence (P01732 22-235): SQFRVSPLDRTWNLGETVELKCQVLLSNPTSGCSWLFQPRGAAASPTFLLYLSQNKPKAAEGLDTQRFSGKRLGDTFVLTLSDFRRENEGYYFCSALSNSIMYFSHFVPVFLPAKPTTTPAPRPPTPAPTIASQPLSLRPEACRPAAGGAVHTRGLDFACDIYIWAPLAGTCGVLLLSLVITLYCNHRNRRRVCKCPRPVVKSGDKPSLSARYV
# Assay method text: flow cytometry, human CD8+ T cells, 2 uM FN3
Recorded metric: Human T-cell Binding 2 uM (MFI)
Quick reminder: number only, in MFI, skip the unit.

Q: Tell me its Human T-cell Binding 2 uM (MFI) given P282ER9P1360_F11 (designed binder, FN3 domain) LPAPKNLVVSRVTEDSARLSWIAPDAAFDSFSIAYVEAELVGEAIQLVVPGSERSYDLTGLKPGTEYWVVILGVKGGNPSNPLGASFTT as the entry.
A: 22400

Q: Tell me its Human T-cell Binding 2 uM (MFI) given P283AR9P1362_C12 (designed binder, FN3 domain) LPAPKNLVVSRVTEDSARLSWAKNLHSFDSFLIQYQESEKVGEAIVLTVPGSERSYDLTGLKPGTEYTVSIYGVDVKYDIDSRPISSNPLSAIFTT as the entry.
A: 7060

Q: Tell me its Human T-cell Binding 2 uM (MFI) given P283AR9P1362_B8 (designed binder, FN3 domain) LPAPKNLVVSRVTEDSARLSWWTSPLPFDSFLIQYQESEKVGEAIVLTVPGSERSYDLTGLKPGTEYTVSIYGVDVKYDIDSRPISSNPLSAIFTT as the entry.
A: 5740

Q: Tell me its Human T-cell Binding 2 uM (MFI) given P283BR9P1363_A8 (designed binder, FN3 domain) LPAPKNLVVSRVTEDSARLSWVRSDTARFFDSFLIQYQESEKVGEAIVLTVPGSERSYDLTGLKPGTEYTVSIYGVDVKYDIDSRPISSNPLSAIFTT as the entry.
A: 11300

Q: Tell me its Human T-cell Binding 2 uM (MFI) given P283AR9P1362_B10 (designed binder, FN3 domain) LPAPKNLVVSRVTEDSARLSWKRRWDSFDSFLIQYQESEKVGEAIVLTVPGSERSYDLTGLKPGTEYTVSIYGVDVEWFNGLPHHSNPLSAIFTT as the entry.
A: 15400

Q: Tell me its Human T-cell Binding 2 uM (MFI) given P283AR9P1362_A3 (designed binder, FN3 domain) LPAPKNLVVSRVTEDSARLSWKRIDSPFDSFLIQYQESEKVGEAIVLTVPGSERSYDLTGLKPGTEYTVSIYGVDVKYDIDSRPISSNPLSAIFTT as the entry.
A: 5540

Q: Tell me its Human T-cell Binding 2 uM (MFI) given P282DR9P1359_E11 (designed binder, FN3 domain) LPAPKNLVVSRVTEDSARLSWTAPDAAFDSFYISYPEWPPVGEAIVLTVPGSERSYDLTGLKPGTEYWVIIYGVKGGAISTPLSAIFTT as the entry.
A: 40600

Q: Tell me its Human T-cell Binding 2 uM (MFI) given P282ER9P1360_G7 (designed binder, FN3 domain) LPAPKNLVVSRVTEDSARLSWTAPDAAFDSFGILYYEPVDSGEAITLPVPGSERSYDLTGLKPGTEYWVVITGVKGGAPSTPLGAILTT as the entry.
A: 25400

Q: Tell me its Human T-cell Binding 2 uM (MFI) given P282FR9P1361_A3 (designed binder, FN3 domain) LPAPKNLVVSRVTEDSARLSWTAPDAAFDSFDIWYAEYGYPGEAIVLTVPGSERSYDLTGLKPGTEYDVAIVGVKGGNRSYPLSAIFTT as the entry.
A: 7670

Cited source: patent US20210032312A1
